testedOn: T1, Human TMPRSS2 recombinant protein, extracellular region (N-terminal His tag, C-terminal Strep-tag II) (human, UniProt O15393 106-492)
T1 construct: also called Human TMPRSS2 recombinant proteins; extracellular region of human TMPRSS2
testName: SPR (BIAcore), captured mAb, soluble human TMPRSS2 extracellular region
Kindly supply the reported Kd values for the records listed here.
Answers are plain numbers, in nM.

As a guide, the following entries are already answered.
binder	valueUnit	Kd
1831_15 antibody (antibody, V domains shown) VH: QVQLQQPGAELVKPGASVKLSCKASGYSFTTYWMHWVRQRPGQGLEWIGIIHPNSGTTNYNEKFKSKASLTVDKSSSTAYMQLSSLTSEDSAVYYCARLLWDYFDYWGQGTTLTVSS VL: DIVMSQSPSSLAVSAGEKVTMSCKSSQSLLNSRTRKNFLAWYQQKPGQSPKLLIYWASTRESGVPDRFTGSGSGTDFTLTISSVQAEDLAVYYCKQSYNLYTFGGGTKLEIK	nM	0.418
2228_15 antibody (antibody, V domains shown) VH: QVQLQQSGPELVKPGTSVKISCKASGYTFTDYYINWVKQRPGQGLEWIGWIFPGSGSSYYNAIFKGKATLTVDTSSNTAHMSLSSLTSDDSAVYFCARGDFGNFGGFFTYWGQGTLVTVSA VL: DVVVTQSPASLAVSLGQRATISCRASKSVSTSGYSFMHWYQQKPGQPPKLLIYLASNLESGVPARFSGSGSGTDFILNIHPVEEEDAATYYCQHSRELPLTFGAGTKLELK	nM	8.41
1864_10 antibody (antibody, V domains shown) VH: QVQLQQSGPALVKPGASLKISCEASGYTFTYYSINWVKQRPGQGLEWIGWIFPGSGSTYYNEKFKGKATLTIDKSSSTAYMLLSSLTSEDSAVYFCARSDYGSAYGYFDVWGTGTTVTVSS VL: DIVLTQSPASLAVSLGQRATISCRASKSVSTSGYSYMHWYQQKPGQPPKLLIYLASNLESGVPARFSGSGSGTDFTLNIHPVEEEDAATYYCQHSRDLPLTFGAGTKLELK	nM	5.14

Q. Looking for the measured Kd of 2114_16 antibody (antibody, V domains shown, also called 2114 antibody) VH: EVQLQQSGPELVKPGASVKISCKASGYTFTDYYMNWVKRRHGKSLEWIGNINPNNGGTSYNQKFKGKATLTVDKSSSTAYMELRSLTSEDSVVYYCAREGDLFPFAYWGQGTLVTVSA VL: QAVVTQESALTTSPGETVTLTCRSSIGTVTTSNFANWVQEKPDHLFTGLIGASNNRAPGVPARFSGSLIGDKAALTITGAQTEDEAIYFCALWFSNHWVFGGGTKLTVL , can you help?
A. 1.04
